The reported numbers originate from PubChem BioAssay (NCI).

- measurement_notes: NCI Yeast Anticancer Drug Screen. Data for the cln2 rad14 strain (AID 165);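 further: 0% = growth equal to vehicle treated cultures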
- measurement_setup: S. cerevisiae cln2 rad14 strain, at 50.0 µM, stronger effect = higher value
Compounds without any hit were thinned out: in the full panel of roughly 79,000, 15% have a hit.
outcome_measure: growth inhibition (%)
Dear colleague, please return just the value in %, with no unit written.

| compound | outcome_measure | output_unit | observed_value |
| --- | --- | --- | --- |
| NC(=O)Cc1ccccc1 | growth inhibition | % | 8.75 |

CCC(C)OC(=O)Nc1cccc(OC(=O)NC)c1 (stereo unspecified) yielded growth inhibition of -2.15

NC(=O)CCC(NC(=O)Cc1ccccc1)C(=O)O (stereo unspecified) (tested in a mixture with another compound) yielded growth inhibition of -29.9

O=c1oc2ccccc2c(O)c1C(c1ccc2c(c1)OCO2)c1c(O)c2ccccc2oc1=O yielded growth inhibition of 7

CO[C@@]12[C@@H]3N[C@@H]3CN1C1=C(C(=O)C(Nc3ccc(O)cc3C)=C(C)C1=O)[C@@H]2COC(N)=O yielded growth inhibition of 44.4

COC(=O)C1C(OC(=O)c2ccccc2)CC2CCC1N2C(N)=O (stereo unspecified) yielded growth inhibition of -23

COc1cc(/C=C2\C(O)C3CCN2CC3)cc(OC)c1OC (stereo unspecified) yielded growth inhibition of -8.65

COC(=S)NP(=O)(NC(=S)OC)NC(=S)OC yielded growth inhibition of -35

CCC(Cl)COP(=O)(OCC(Cl)CC)C(CC)OP(=S)(OCC(Cl)CC)OCC(Cl)CC (stereo unspecified) yielded growth inhibition of 94.8

N.N.N.O=[N+]([O-])[O-].O=[N+]([O-])[O-].O=[N+]([O-])[O-].O=[N+]([O-])[O-].[Co+3] yielded growth inhibition of 31.3

CCCCCCP(=O)(O)O.[Zn+2] yielded growth inhibition of -9.9
